Measured values drawn from patent US10266495B2 for this set.

- STUDY_SYSTEM: IDH1-R132H recombinant protein (Homo sapiens, UniProt O75874, R132H)
- Sequence (O75874 whole entry R132H): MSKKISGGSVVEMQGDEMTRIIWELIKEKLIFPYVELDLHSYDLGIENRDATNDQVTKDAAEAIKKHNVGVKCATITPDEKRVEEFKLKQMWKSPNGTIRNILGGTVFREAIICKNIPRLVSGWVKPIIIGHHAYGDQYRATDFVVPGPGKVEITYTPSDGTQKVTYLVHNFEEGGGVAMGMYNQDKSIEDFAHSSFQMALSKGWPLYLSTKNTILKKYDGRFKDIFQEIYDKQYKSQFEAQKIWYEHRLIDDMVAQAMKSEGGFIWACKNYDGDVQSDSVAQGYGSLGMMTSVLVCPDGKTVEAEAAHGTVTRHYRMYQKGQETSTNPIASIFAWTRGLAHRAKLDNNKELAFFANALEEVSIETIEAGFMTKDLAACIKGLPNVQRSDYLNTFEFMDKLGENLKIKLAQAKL
- PROTOCOL_DETAILS: IDH1-R132H enzymatic assay (NADPH consumption, diaphorase/resazurin readout)
- Format: biochemical
- RUN_CONDITIONS: read-out: Enzyme IDH1 R132H IC50 Range
pIC50: −log10 of the molar value.
Entries annotated with measured pIC50
REPORTED_ENDPOINT: pIC50

MOLECULE | DATA_VALUE
COc1cc(NCc2cc3cc(Cl)c(OCc4cc(C)n(C)n4)cc3[nH]c2=O)ccc1C#N [Compound I-70] | 7.00 to 8.00
COc1cc(NCc2cc3cc(Cl)c(OCC4CCS(=O)(=O)CC4)cc3[nH]c2=O)ccc1C#N [Compound I-75] | 6.00 to 7.00
COc1ccc2[nH]c(=O)c(CNc3ccc(-n4ccnc4)cc3)cc2c1 [Compound I-53] | < 6.00
COc1cc(NCc2cc3cc(F)ccc3[nH]c2=O)ccc1C#N [Compound I-27] | < 6.00
COc1cc(NCc2cc3cc(Cl)c(OCCN4CCN(S(C)(=O)=O)CC4)cc3[nH]c2=O)ccc1C#N [Compound I-64] | 7.00 to 8.00
